Recorded values, source ChEMBL document CHEMBL1201862.

Listing of entries alongside the reported EC50.
molecular target: Peroxisome proliferator-activated receptor gamma/Nuclear receptor coactivator 3 (Homo sapiens, UniProt P37231); assay type: functional;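 note: agonist potency for raising coactivator recruitment to the receptor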
Sequence (P37231 whole entry): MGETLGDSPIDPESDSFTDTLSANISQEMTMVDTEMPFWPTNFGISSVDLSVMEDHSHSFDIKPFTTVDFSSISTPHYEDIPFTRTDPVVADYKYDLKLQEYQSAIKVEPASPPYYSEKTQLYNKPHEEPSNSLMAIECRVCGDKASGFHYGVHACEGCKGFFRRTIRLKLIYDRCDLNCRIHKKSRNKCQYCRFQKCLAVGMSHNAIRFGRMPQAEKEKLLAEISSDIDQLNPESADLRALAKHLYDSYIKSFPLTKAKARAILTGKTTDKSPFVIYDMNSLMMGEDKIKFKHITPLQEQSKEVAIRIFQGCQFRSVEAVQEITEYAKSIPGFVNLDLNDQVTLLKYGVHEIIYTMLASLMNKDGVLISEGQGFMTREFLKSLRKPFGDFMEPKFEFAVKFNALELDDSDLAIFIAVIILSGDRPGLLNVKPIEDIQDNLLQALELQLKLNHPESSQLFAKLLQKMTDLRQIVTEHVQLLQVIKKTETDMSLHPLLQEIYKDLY
Sequence (Q9Y6Q9 whole entry, further chain): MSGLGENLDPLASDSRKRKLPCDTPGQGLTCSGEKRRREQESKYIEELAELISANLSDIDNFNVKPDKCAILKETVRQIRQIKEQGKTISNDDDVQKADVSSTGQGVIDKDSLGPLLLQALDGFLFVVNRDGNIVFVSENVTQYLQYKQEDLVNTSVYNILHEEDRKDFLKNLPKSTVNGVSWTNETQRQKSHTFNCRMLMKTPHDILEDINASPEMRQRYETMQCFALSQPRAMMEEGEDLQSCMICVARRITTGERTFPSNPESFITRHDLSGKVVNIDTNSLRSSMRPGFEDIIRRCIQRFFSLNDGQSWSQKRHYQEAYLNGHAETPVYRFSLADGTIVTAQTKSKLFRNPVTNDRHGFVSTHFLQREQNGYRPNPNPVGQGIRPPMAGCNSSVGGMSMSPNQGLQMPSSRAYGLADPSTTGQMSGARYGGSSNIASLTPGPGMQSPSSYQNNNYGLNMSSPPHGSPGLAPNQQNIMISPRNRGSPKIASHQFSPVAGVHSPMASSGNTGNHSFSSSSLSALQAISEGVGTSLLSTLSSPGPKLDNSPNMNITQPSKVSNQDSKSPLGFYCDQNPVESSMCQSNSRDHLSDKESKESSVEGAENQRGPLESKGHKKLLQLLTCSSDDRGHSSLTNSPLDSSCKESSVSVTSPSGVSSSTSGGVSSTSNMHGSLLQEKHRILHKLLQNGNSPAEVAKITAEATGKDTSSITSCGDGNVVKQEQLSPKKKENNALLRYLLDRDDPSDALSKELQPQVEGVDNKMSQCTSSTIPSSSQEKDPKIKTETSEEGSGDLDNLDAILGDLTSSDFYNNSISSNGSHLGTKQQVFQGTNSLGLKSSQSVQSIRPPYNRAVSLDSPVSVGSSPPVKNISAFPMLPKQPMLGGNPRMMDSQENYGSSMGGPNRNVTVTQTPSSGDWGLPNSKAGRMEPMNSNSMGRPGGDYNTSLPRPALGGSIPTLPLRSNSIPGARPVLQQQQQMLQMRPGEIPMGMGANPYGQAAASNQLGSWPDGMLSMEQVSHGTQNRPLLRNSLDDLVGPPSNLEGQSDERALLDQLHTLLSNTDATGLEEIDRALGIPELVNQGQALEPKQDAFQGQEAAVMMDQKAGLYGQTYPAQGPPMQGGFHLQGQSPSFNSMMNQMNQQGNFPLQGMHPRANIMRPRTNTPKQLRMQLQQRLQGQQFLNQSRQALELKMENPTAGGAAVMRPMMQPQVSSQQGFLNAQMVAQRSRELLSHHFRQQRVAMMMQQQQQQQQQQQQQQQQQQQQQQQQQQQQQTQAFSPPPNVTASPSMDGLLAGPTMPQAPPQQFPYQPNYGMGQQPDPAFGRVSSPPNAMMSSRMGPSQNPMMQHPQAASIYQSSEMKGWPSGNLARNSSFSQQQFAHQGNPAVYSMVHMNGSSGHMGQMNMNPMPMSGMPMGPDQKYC
Active and inactive are the calls of the source.

| compound | quantity_name | reported_measurement |
| --- | --- | --- |
| Cc1nc(SCC(=O)Nc2ccc(F)cc2)c2oc3ccccc3c2n1 | EC50 | > 79.4 µM (not active) |
| COc1ccc(S(=O)(=O)Nc2c(F)cccc2F)cc1 | EC50 | > 79.4 µM (not active) |

## Input Please give the measured EC50 for this compound: "COc1ccc(CC(=O)NCc2nnc(SCC(=O)Nc3cccc(F)c3)n2C)cc1"
## Output > 79.4 µM (not active)

## Input I have this compound here, Cc1cc(NC(=O)CN2C(=O)NC3(CCC(C)CC3)C2=O)no1 (stereo not given) , and I need its recorded EC50.
## Output > 79.4 µM (not active)

## Input # get_value(readout='EC50', item= "COC(=O)CSc1nc2cc3c(cc2cc1C#N)OCO3" )
## Output 7.25 µM (active)

* * *

assay: CRF-BP/CRF-R2 complex antagonists, dose response, cell-based, uHTS hits, 384-well (AID 651639); type: functional, Homo sapiens; details: read-out: IC50_Mean
Active and inactive are the calls of the source.
Hello, when you answer, please use one of the following outcomes: Y for active, N for inactive

Sample answers from the record:
| molecule | label |
| --- | --- |
| S=C(NCCc1ccccc1)N1CCC2CC1c1c(Cl)cccc12 (stereo not given) | N |
| Cc1cs/c(=N\c2ccccc2)n1Cc1ccco1 | N |

## Input # outcome recorded in this test, key = "Cc1cccc(CSc2nc3c(c(=O)n2C)SCC3)c1"
## Output N

## Input Any idea what this test logged for "CC1CCN(S(=O)(=O)c2nnc(NC(=O)c3cccc(Cl)c3)s2)CC1" ?
## Output N

## Input What outcome does the record of this test show for "Cc1ccc(-n2nnnc2SCc2nnc(-c3ccccc3Br)o2)cc1" ?
## Output Y

* * *

compounds and their reported IC50
target: DNA dC->dU-editing enzyme APOBEC-3G (Homo sapiens, UniProt Q9HC16); format: functional;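 note: Dose-response counterscreen measuring inhibition of APOBEC3G DNA deaminase activity, run while confirming APOBEC3A inhibitors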
Sequence (Q9HC16 whole entry): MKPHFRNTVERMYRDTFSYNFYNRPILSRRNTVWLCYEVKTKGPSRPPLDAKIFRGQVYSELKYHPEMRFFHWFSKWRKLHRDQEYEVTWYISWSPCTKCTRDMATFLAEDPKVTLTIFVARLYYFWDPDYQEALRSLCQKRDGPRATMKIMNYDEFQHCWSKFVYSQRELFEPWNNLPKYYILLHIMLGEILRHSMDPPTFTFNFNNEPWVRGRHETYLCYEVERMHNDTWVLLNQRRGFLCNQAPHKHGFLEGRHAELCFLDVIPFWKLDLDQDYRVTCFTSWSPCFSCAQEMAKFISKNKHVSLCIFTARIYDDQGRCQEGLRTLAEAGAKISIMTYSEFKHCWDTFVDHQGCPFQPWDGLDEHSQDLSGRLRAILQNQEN
Calls of active or inactive are those of the source.

Consider the worked cases shown below.
| compound | tested_target | quantity_name | reported_measurement |
| --- | --- | --- | --- |
| C[n+]1ccc(C(=O)NCc2ccccc2)cc1 [ENISAMIUM IODIDE] | DNA dC->dU-editing enzyme APOBEC-3G (Homo sapiens, UniProt Q9HC16) | IC50 | 4.98 µM (active) |
| COCCNC1=N[C@@H](c2ccc(Br)cc2)C(C(=O)OC)=C(C)N1Cc1ccccc1 | DNA dC->dU-editing enzyme APOBEC-3G (Homo sapiens, UniProt Q9HC16) | IC50 | 15.1 µM (active) |
| NS(=O)(=O)c1cc(C(=O)OCC(=O)Nc2ccc3[nH]c(O)nc3c2)ccc1Cl | DNA dC->dU-editing enzyme APOBEC-3G (Homo sapiens, UniProt Q9HC16) | IC50 | 8.99 µM (active) |
| Cc1cccc(C(=O)N[C@H](C(=O)OCc2cc(=O)n3c(n2)sc2ccccc23)C(C)C)c1 | DNA dC->dU-editing enzyme APOBEC-3G (Homo sapiens, UniProt Q9HC16) | IC50 | 24.5 µM (active) |
| CCOC(=O)C1=C(COC(=O)/C=C/c2ccco2)NC(=O)NC1C (configuration not stated) | DNA dC->dU-editing enzyme APOBEC-3G (Homo sapiens, UniProt Q9HC16) | IC50 | 28.4 µM (active) |

## Input Request the reported IC50 associated with CCCc1n(CC(O)COCc2ccccc2)c2ccccc2[n+]1C (configuration not stated)
## Output 4.55 µM (active)

## Input # input compound: CCc1n(CC(O)COCc2ccccc2)c2ccccc2[n+]1C (configuration not stated) ; wanted: its IC50
## Output 3.14 µM (active)
